- Tested on: Wnt reporter (TCF/LEF1 promoter) in HEK STF293 cells
- Assay overview: HEK STF293 Wnt reporter (luciferase) assay
- Type: cell-based
- Applied conditions: Homo sapiens, STF/293, Wnt3a-conditioned media, Steady Glo normalized to Cell Titer
- Description: Screening with STF293 and SW480STF. HEK STF293 cells are seeded at approximately 25,000-30,000 cells/well in a 96-well (100 uL volume). On the first day, Wnt3a-conditioned media (1:1) will be added along with diluted compounds (1:100). […] Both Steady Glo and Cell Titer assays will be read with a luminescence plate reader. […] Experimental. […] The level of Wnt activity is directly correlated with the level of luciferase activity (determined using a simple assay). […]
Observable: EC50

q: Looking for the measured EC50 of NC(=O)c1ccccc1NC(=O)c1ccc(S(=O)(=O)Nc2ccccc2)cc1 , can you help?
a: > 100 nM

q: Looking for the measured EC50 of COc1ccccc1-c1cc(C(=O)Nc2c(C)nn(Cc3ccc(F)cc3)c2C)no1 , can you help?
a: > 100 nM

q: Looking for the measured EC50 of Cc1nn(Cc2ccccc2)c(C)c1NC(=O)c1cc2n(n1)C(C(F)(F)F)CC(c1ccccc1)N2 (stereo not drawn) , can you help?
a: ≤ 100 nM

q: Looking for the measured EC50 of Cc1nn(Cc2ccc(F)cc2)c(C)c1NC(=O)c1cc(-c2ccc(F)cc2)on1 , can you help?
a: > 100 nM

q: Looking for the measured EC50 of Cc1ccc(NS(=O)(=O)c2ccc(NC(=O)c3n[nH]c4c3CCc3ccccc3-4)cc2)cc1 , can you help?
a: > 100 nM

q: Looking for the measured EC50 of COc1cc2nc(NC(=O)c3ccc(S(=O)(=O)N(C)c4ccccc4)cc3)sc2cc1OC , can you help?
a: > 100 nM
